tested.system: DRB4*0101 (Homo sapiens, UniProt P01903+P13762, G164S)
test.summary: biochemical
Type: binding
Would you mind telling me the reported IC50 of each entry?
Give bare numbers, in nM.

>  <compound>
CC(C)C[C@H](NC(=O)[C@H](CCC(=O)O)NC(=O)[C@H](CCCCN)NC(=O)[C@@H](N)CCCNC(=N)N)C(=O)N[C@@H](CC(C)C)C(=O)N[C@H](C(=O)N[C@H](C(=O)N[C@@H](Cc1ccccc1)C(=O)N[C@@H](CCCCN)C(=O)N[C@@H](CC(N)=O)C(=O)N[C@@H](C)C(=O)N[C@@H](Cc1c[nH]cn1)C(=O)N[C@@H](C)C(=O)N[C@@H](CCCCN)C(=O)N[C@@H](CCCCN)C(=O)O)[C@@H](C)O)C(C)C

>  <unit.of.measure>
nM

>  <IC50>
57

$$$$

Moving on to the next compound.
Fill in: IC50 of CC[C@H](C)[C@H](NC(=O)[C@@H](NC(=O)[C@H](CCCNC(=N)N)NC(=O)[C@H](CCC(=O)O)NC(=O)[C@@H]1CCCN1C(=O)CNC(=O)[C@H](CC(=O)O)NC(=O)[C@@H](NC(=O)[C@H](CC(C)C)NC(=O)[C@@H](NC(=O)[C@@H](NC(=O)[C@@H]1CCCN1C(=O)[C@H](CCCCN)NC(=O)[C@H](CC(C)C)NC(=O)[C@@H](N)CS)C(C)C)[C@@H](C)CC)[C@@H](C)O)C(C)C)C(=O)O is ___
1210

---

tested.system: DRB1*0802 (Homo sapiens, UniProt P01903+P01911, A100R/A103L/A169T/F76Y/H45Y/I96F/K41T/L162R/M171V/P40S/Q125H/Q178H/Q39Y/Q99D/R218S/R42G/S66Y/V115G/W38E)
test.summary: biochemical
property: IC50
# output: numeric value plus its unit

Observe how each entry below is paired with its result.
>  <compound>
CC[C@H](C)[C@H](NC(=O)[C@@H]1CCCN1C(=O)[C@H](CC(C)C)NC(=O)CNC(=O)[C@@H](N)CCCCN)C(=O)N[C@@H](CCCNC(=N)N)C(=O)N[C@@H](Cc1ccc(O)cc1)C(=O)N[C@@H](CCC(N)=O)C(=O)N[C@H](C(=O)N[C@H](C(=O)N[C@@H](C)C(=O)N[C@H](C(=O)N[C@@H](CCCCN)C(=O)N[C@@H](CO)C(=O)N[C@@H](CCC(=O)O)C(=O)O)[C@@H](C)O)[C@@H](C)O)[C@@H](C)O

>  <property>
IC50

>  <reading>
36 nM

$$$$
>  <compound>
CC[C@H](C)[C@H](NC(=O)[C@@H](N)CCCCN)C(=O)N1CCC[C@H]1C(=O)NCC(=O)NCC(=O)N[C@@H](C)C(=O)N[C@@H](CCSC)C(=O)N[C@@H](Cc1ccc(O)cc1)C(=O)N[C@@H](C)C(=O)N[C@@H](CC(=O)O)C(=O)N[C@@H](CC(=O)O)C(=O)N[C@H](C(=O)N[C@@H](C)C(=O)NCC(=O)N[C@@H](Cc1c[nH]c2ccccc12)C(=O)N[C@@H](CC(=O)O)C(=O)N[C@H](C(=O)O)[C@@H](C)O)[C@@H](C)O

>  <property>
IC50

>  <reading>
1160 nM

$$$$
>  <compound>
CC[C@H](C)[C@H](NC(=O)[C@H](CCCCN)NC(=O)CNC(=O)[C@H](CCC(=O)O)NC(=O)[C@@H](NC(=O)[C@H](CS)NC(=O)[C@H](CC(C)C)NC(=O)[C@H](CCCCN)NC(=O)[C@H](CCCNC(=N)N)NC(=O)[C@H](CC(C)C)NC(=O)[C@@H](NC(=O)[C@H](C)NC(=O)[C@H](CC(C)C)NC(=O)[C@H](CCC(N)=O)NC(=O)[C@@H](N)[C@@H](C)O)[C@@H](C)O)[C@@H](C)CC)C(=O)O

>  <property>
IC50

>  <reading>
130 nM

$$$$
>  <compound>
CC[C@H](C)[C@H](NC(=O)[C@H](CC(N)=O)NC(=O)CNC(=O)[C@@H](NC(=O)CNC(=O)[C@H](CC(N)=O)NC(=O)[C@@H](N)CO)[C@@H](C)O)C(=O)N[C@H](C(=O)N[C@@H](CO)C(=O)N[C@@H](CO)C(=O)N[C@H](C(=O)N[C@@H](CC(N)=O)C(=O)N[C@@H](CCSC)C(=O)N[C@H](C(=O)N[C@@H](CO)C(=O)N[C@@H](CCCNC(=N)N)C(=O)N[C@@H](CC(C)C)C(=O)O)C(C)C)C(C)C)C(C)C

>  <property>
IC50

>  <reading>
5.8 nM

$$$$

Fill in: IC50 of CC[C@H](C)[C@H](NC(=O)[C@H](C)NC(=O)[C@H](CC(N)=O)NC(=O)[C@H](C)N)C(=O)N[C@@H](Cc1ccccc1)C(=O)N[C@@H](CCCCN)C(=O)N[C@@H](CC(C)C)C(=O)N[C@H](C(=O)N[C@@H](Cc1ccc(O)cc1)C(=O)N[C@@H](CCC(N)=O)C(=O)N[C@@H](CC(N)=O)C(=O)N[C@@H](CCCCN)C(=O)N[C@H](C(=O)N[C@H](C(=O)N[C@@H](CCCCN)C(=O)N[C@H](C(=O)N[C@@H](CCC(N)=O)C(=O)O)C(C)C)C(C)C)C(C)C)[C@@H](C)O is ___
2600 nM

---

tested.system: DRB1*0901 (Homo sapiens, UniProt P01903+P01911, A100R/A103E/D57H/D86V/F55Y/F60I/F76Y/I96F/K127E/L162R/M171V/P40D/Q125H/Q99R/R33Q/R42F/S133A/S66N/T210M/V115G/W38K/Y107V/Y59G/Y89S)
test.summary: biochemical
Assay type: binding
conditions.used: competitive inhibition of radiolabeled standard peptide; DRB1*0901; read-out: Binding Affinity (nM) DRB1*0901
Would you mind telling me the reported IC50 of each entry?
# output: numeric value plus its unit

Observe how each entry below is paired with its result.
>  <compound>
CSCC[C@H](NC(=O)[C@H](CCC(N)=O)NC(=O)[C@H](C)NC(=O)[C@H](Cc1ccc(O)cc1)NC(=O)[C@H](C)NC(=O)[C@H](CCCCN)NC(=O)CNC(=O)[C@H](CC(C)C)NC(=O)[C@H](CS)NC(=O)[C@H](C)NC(=O)[C@@H](NC(=O)[C@H](CCC(=O)O)NC(=O)[C@H](CCCNC(=N)N)NC(=O)[C@H](CC(C)C)NC(=O)[C@@H](N)CO)[C@@H](C)O)C(=O)N[C@@H](Cc1c[nH]c2ccccc12)C(=O)N[C@H](C(=O)O)[C@@H](C)O [NS5 747-763]

>  <IC50>
393 nM

$$$$
>  <compound>
CSCC[C@H](NC(=O)[C@@H](NC(=O)[C@H](Cc1ccccc1)NC(=O)[C@H](CCCNC(=N)N)NC(=O)[C@H](CC(N)=O)NC(=O)[C@H](CC(C)C)NC(=O)[C@H](CC(C)C)NC(=O)[C@H](CC(C)C)NC(=O)[C@H](CCCNC(=N)N)NC(=O)[C@H](CO)NC(=O)[C@@H](NC(=O)[C@@H](N)CCSC)C(C)C)[C@@H](C)O)C(=O)N[C@H](C(=O)N[C@@H](Cc1c[nH]cn1)C(=O)N[C@@H](CCCNC(=N)N)C(=O)N[C@@H](CCCNC(=N)N)C(=O)O)[C@@H](C)O [NS5 233-248]

>  <IC50>
569 nM

$$$$
>  <compound>
CC[C@H](C)[C@H](NC(=O)[C@@H](N)CCCCN)C(=O)N1CCC[C@H]1C(=O)NCC(=O)NCC(=O)N[C@@H](C)C(=O)N[C@@H](CCSC)C(=O)N[C@@H](Cc1ccc(O)cc1)C(=O)N[C@@H](C)C(=O)N[C@@H](CC(=O)O)C(=O)N[C@@H](CC(=O)O)C(=O)N[C@H](C(=O)N[C@@H](C)C(=O)NCC(=O)N[C@@H](Cc1c[nH]c2ccccc12)C(=O)N[C@@H](CC(=O)O)C(=O)N[C@H](C(=O)O)[C@@H](C)O)[C@@H](C)O [NS5 523-539]

>  <IC50>
13200 nM

$$$$

Please state, for each entry, its recorded IC50.
1. CC(C)C[C@H](NC(=O)[C@H](C)NC(=O)[C@H](CCC(=O)O)NC(=O)[C@H](Cc1ccccc1)NC(=O)[C@H](CCC(=O)O)NC(=O)[C@H](CC(C)C)NC(=O)[C@H](Cc1ccc(O)cc1)NC(=O)[C@H](CCCNC(=N)N)NC(=O)[C@H](C)NC(=O)CNC(=O)[C@H](CC(C)C)NC(=O)[C@@H](N)Cc1c[nH]c2ccccc12)C(=O)NCC(=O)N[C@@H](Cc1ccccc1)C(=O)N[C@@H](CC(C)C)C(=O)N[C@@H](CC(N)=O)C(=O)N[C@@H](CCC(=O)O)C(=O)O [NS5 477-493]
2. CC[C@H](C)[C@H](NC(=O)[C@H](C)NC(=O)[C@H](CC(N)=O)NC(=O)[C@H](C)NC(=O)[C@H](CC(C)C)NC(=O)[C@H](CCC(N)=O)NC(=O)[C@H](CCCNC(=N)N)NC(=O)[C@H](Cc1c[nH]cn1)NC(=O)[C@H](CCC(=O)O)NC(=O)[C@@H]1CCCN1)C(=O)N[C@@H](Cc1ccccc1)C(=O)N[C@@H](CCCCN)C(=O)N[C@@H](CC(C)C)C(=O)N[C@H](C(=O)N[C@@H](Cc1ccc(O)cc1)C(=O)N[C@@H](CCC(N)=O)C(=O)N[C@@H](CC(N)=O)C(=O)O)[C@@H](C)O [NS5 558-574]

1. 79 nM
2. 1930 nM

The reported numbers originate from paper PMC3794980.
